Test system: SK-MEL-28 melanoma
METHOD: NCI-60 one-dose screen, 48 h (100 = growth as untreated, 0 = no growth, -100 = all killed)
MEASUREMENT CONTEXT: 10 µM unless noted
Compounds without any hit were thinned out: in the full panel of roughly 83,000, 20% have a hit. Active and inactive are the calls of the source. How the source made its calls: active means growth percent below 10; inactive means the rest.
Please go through the items and note down their growth.

Input: For the compound CC(C)[C@H]1CCC2=C3CC[C@]45OC(=O)[C@@]6(CCC(C)(C)C[C@H]64)CC[C@@]5(C)[C@]3(C)CC[C@@]21C , report growth.
Output: 87.4% [100 µM] (inactive)

Input: Recall and state the measured growth for CC(C)(C)c1cc(C(=O)Nc2ccc(C(=O)NCCN)cc2)cc(C(C)(C)C)c1 .
Output: -64.4% (active)

Input: # return recorded growth for entry COc1cc(C)cc2oc3oc(=N)c(C(=O)c4ccccc4)cc3c(=O)c12
Output: 98% (inactive)

Input: Give a short answer stating reported growth for CCOC(=O)C1=C(C(=O)c2ccc(Br)cc2)C(c2ccc(Br)cc2)NC(=S)N1 (centres undefined) .
Output: 105% (inactive)

Input: Hello, please tell me recorded growth for this one: CC(C)C1=NOC(=O)C1=Cc1cn(-c2ccccc2)nc1-c1ccccc1
Output: 95.1% (inactive)

Input: Read off the recorded growth for C=C(C)[C@@H]1CC[C@]2(C(=O)N3CCN(C)CC3)CC[C@]3(C)[C@H](CC[C@@H]4[C@@]5(C)C/C(=C/c6ccncc6)[C@H](O)C(C)(C)[C@@H]5CC[C@]43C)[C@@H]12
Output: -54.3% [100 µM] (active)

Input: Name the recorded growth of the item CC(C)=CC/C=C(/C)[C@H]1CC[C@]2(C)[C@@H]1CC[C@@H]1[C@@]3(C)CCCNC(C)(C)[C@@H]3CC[C@]12C in your answer.
Output: -87.1% [100 µM] (active)

Input: Specify growth for C[n+]1cccc(NC(=O)c2ccc3ccc4ccc(C(=O)Nc5ccc[n+](C)c5)nc4c3n2)c1 and stop.
Output: 31.2% (inactive)

Input: Query growth for Oc1c(CNCCNCc2cc(Cl)cc(Cc3ccccc3)c2O)cc(Cl)cc1Cc1ccccc1
Output: 19.5% (inactive)

Input: Provide one value: measured growth of CC1Cc2ccc(OCCN(C)C)cc2C1=O (centres undefined)
Output: 103% (inactive)

Input: Please give the documented growth of CC(C)[N+](C)(C)CC(O)COc1cccc2ccccc12 (centres undefined)
Output: 113% (inactive)

Input: Give growth for Cc1cc(C)c(O)c(CNCCCNCc2cc(C)cc(C)c2O)c1
Output: 62.4% (inactive)

Input: Determine from records and report growth for N#C/C(C(=O)c1ccccc1)=C1/C(=O)Nc2ccccc21
Output: 113% (inactive)

Input: Quickly give me recorded growth for Cc1cc(N2CCCCCC2)nc(N2CCN(CC(=O)Nc3ccc4c(ccn4Cc4ccccc4)c3)CC2)n1
Output: 51.8% (inactive)

Input: Using known records, supply growth for O=C1CC(c2ccccc2)Cc2nc3ccc(Br)cc3cc21 (centres undefined)
Output: 56.7% (inactive)

Input: Answer with the recorded growth for the compound listed here: CSc1cccc([N+](=O)[O-])c1
Output: 111% (inactive)

Input: Answer with the recorded growth of CN(C)Cc1ccc[nH]1 only.
Output: 107% (inactive)

Input: Return the recorded growth value; entry: O=[N+]([O-])c1cccc(N=NNc2cccc([N+](=O)[O-])c2)c1
Output: 99.5% (inactive)

Input: Quote growth reported for Cc1ccc(NC(=O)N[C@@H](Cc2cc(F)cc(F)c2)C(=O)N[C@@H]2C(=O)N3CCC[C@H]3C(=O)N3CCOC[C@H]3C(=O)N[C@@H](C)C(=O)N3C[C@H](C)C[C@H]3C(=O)O[C@H]2C)cc1 please.
Output: 42.3% (inactive)

###

Test system: NCI-H226 lung
METHOD: NCI-60 one-dose screen, 48 h (100 = growth as untreated, 0 = no growth, -100 = all killed)
MEASUREMENT CONTEXT: 10 µM unless noted
Method: Growth inhibition of the NCI-H226 human Non-Small Cell Lung tumor cell line is measured as a screen for anti-cancer activity. Cells are grown in 96 well plates and exposed to the test compound for 48 hours. Compounds are tested at a single concentration, which is 10^-5 M for most compounds. The reported endpoint is percent growth (GI% or GIPRCNT), where numbers from 0 - 100% represent growth inhibition, and numbers from -100% - 0 represent cell death. […]
About 83,000 compounds went through this panel and 20% of them were active in at least one assay; those are over-represented in the sample as a whole.
ENDPOINT NAME: growth (%)
Give your result in % as a bare value.

Input: Give growth for this entry on NCI-H226 lung: COc1cc(NN=C(c2ccc(O)cc2)c2ccc(O)cc2)c([N+](=O)[O-])cc1[N+](=O)[O-]
Output: 110

Input: Report growth on NCI-H226 lung for this entry: Cn1cc(-c2nnc(-c3cn(C)c4ncc(Br)cc34)o2)c2ccccc21
Output: 93

Input: Fill in: growth on NCI-H226 lung, entry C#C[C@]1(O)CC[C@H]2[C@@H]3CC=C4c5nc(Nc6ccc(OC)cc6OC)sc5CC[C@]4(C)[C@H]3CC[C@@]21C
Output: 24.2

Input: Give reported growth for CCOC(=O)/C(C#N)=C(\C)CCc1ccccc1 (NCI-H226 lung)
Output: 102

Input: Provide growth, tested on NCI-H226 lung, for Nc1cc(C(=O)O)[nH]c(=S)n1 .
Output: 95.2

Input: Lab note: NCI-H226 lung assay, enter growth for O=C(O)c1cn(C2CC2)c2cc(N3CCN(Cc4cc(Cl)ccc4O)CC3)c(F)cc2c1=O here
Output: 82.8

Input: Give growth for O=[N+]([O-])c1cccc(/C=C/c2ccc3ccccc3n2)c1 tested on NCI-H226 lung.
Output: 82.9

Input: Look up NCI-H226 lung data: growth of CCOc1cccc2c(NC(C)CCCN(CC)CC)c(C)cnc12 (stereo not given) , then report it.
Output: 103

Input: Report growth from NCI-H226 lung testing of O=C(Nc1ccc(Oc2ccc(F)cc2)c(Cl)c1)c1cnccn1
Output: 74.4

Input: Fill in growth for Cc1cc(C)c(S(=O)(=O)/N=c2/n(-c3ccccc3)nc3n2CCN3C2=NCCN2)c(C)c1 tested with NCI-H226 lung.
Output: 89

###

Test system: SF-295 CNS
METHOD: NCI-60 one-dose screen, 48 h (100 = growth as untreated, 0 = no growth, -100 = all killed)
MEASUREMENT CONTEXT: 10 µM unless noted
About 83,000 compounds went through this panel and 20% of them were active in at least one assay; those are over-represented in the sample as a whole. Calls of active or inactive are those of the source. Rule for the calls: active = growth percent below 10; inactive = the rest.
Provide the reported growth of each item.

Input: Identify growth associated with the compound Nc1nc(Cl)c2ncn(Cc3cc4c(cc3I)OCO4)c2n1
Output: 42.5% (inactive)

Input: Given CC(=O)CC(=O)SC1=NCCS1 , respond with its growth.
Output: 109% (inactive)

Input: Please report the measured growth for CCN(CC)CCCNCc1cc(-c2ccccc2)nc2ccccc12
Output: 70.2% (inactive)

Input: Find the measured growth of CCOc1ccc(/C=C(\C#N)c2cc3ccccc3[nH]2)cc1 and report it.
Output: 58.3% (inactive)

Input: State, in one line, measured growth of C=C(CN=[N+]=[N-])[C@@H]1CC[C@]2(C)[C@H](CC[C@@H]3[C@H]4[C@H]5OC(=O)[C@@]4(CCC5(C)C)CC[C@]32C)[C@@]1(C)CCC#N
Output: 96.7% [100 µM] (inactive)

###

Test system: DU-145 prostate
METHOD: NCI-60 one-dose screen, 48 h
MEASUREMENT CONTEXT: 10 µM unless noted
This is part of a sample that, as a whole, favours compounds with a hit. Of some 83,000 tested, about 20% had one in any assay. Activity calls are given as the source filed them. The calls were made as follows: active = growth percent below 10; inactive = the rest.
Hello, when you answer, please use one of the following outcomes: y (active), n (inactive)

Input: Outcome logged for Cc1ccc(S(=O)(=O)n2cc(C(=O)C(=O)N3CCCCC3)c3ccccc32)cc1 in this assay:
Output: n

Input: Assay result, entry C=C(C)[C@@H]1CC[C@]2(C(=O)O)CC[C@]3(C)[C@H](CC[C@@H]4[C@@]5(C)C/C(=C/c6ccco6)C(=O)C(C)(C)[C@@H]5CC[C@]43C)[C@@H]12 — outcome?
Output: y

Input: Fill in: this test's call for CCOc1cc(NC(=O)c2ccccc2)c(OCC)cc1N is ___
Output: n

Input: Write down the call the test reported for this compound. Item: O=C(N[C@@H]1CCCc2ccccc21)[C@H](CCC(=O)N1CCN(C2CCCCC2)CC1)N1C(=O)[C@@H](N2C(=O)OC[C@@H]2c2ccccc2)[C@H]1/C=C/c1ccccc1
Output: n

Input: Check the results log: what was the call for C#CCOc1ccc(C2=NN(CC3CC3)C3N=C(Cl)c4ncn(CC5CC5)c4N23)cc1OCC#C (centres undefined) ?
Output: n

Input: Dear colleague, could you share the recorded outcome for COc1ccc2nc3c(cc2c1)C(=O)CC(c1ccccc1)C3 (centres undefined) when you have a moment?
Output: y

Input: Please share the test call associated with O=C(NCc1ccccc1)C(Cl)Cl .
Output: n

Input: What was the test verdict on CCN(CC)c1ccc(/C=C/c2ccc3cc(C)ccc3[n+]2CC)cc1 ?
Output: n

Input: Record request — test call for CCN(CCO)CCC(=O)c1ccc([N+](=O)[O-])cc1
Output: n
